# credit: patent US20250018046A1

The entries below are paired with their reported DC50.
# tested_on: IRAK4 (Homo sapiens)
# Construct: knocking-in a HiBiT fusion tag into the C-terminal of the IRAK4 gene in 293T cells; host or cells: 293T cells, knock-in of HiBiT at the endogenous IRAK4 locus
# Sequence (Q9NWZ3 whole entry, the tested form may be a part): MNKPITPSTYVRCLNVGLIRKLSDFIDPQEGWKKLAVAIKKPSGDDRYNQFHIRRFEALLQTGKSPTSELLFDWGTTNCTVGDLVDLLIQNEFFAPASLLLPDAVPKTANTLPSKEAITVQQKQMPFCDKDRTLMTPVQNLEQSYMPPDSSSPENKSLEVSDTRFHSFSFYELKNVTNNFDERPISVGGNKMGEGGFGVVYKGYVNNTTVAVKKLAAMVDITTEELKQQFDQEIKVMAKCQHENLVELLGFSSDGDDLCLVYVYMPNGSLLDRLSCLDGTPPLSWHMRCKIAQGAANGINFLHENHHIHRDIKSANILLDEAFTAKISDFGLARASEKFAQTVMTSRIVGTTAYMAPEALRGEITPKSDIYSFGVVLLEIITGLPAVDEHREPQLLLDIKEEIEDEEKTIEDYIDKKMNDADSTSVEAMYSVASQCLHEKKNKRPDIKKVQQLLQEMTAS
# test: IRAK4 degradation assay using the HiBiT Method
# Assay type: cell-based
# measurement_context: 293T cells expressing HiBiT-tagged IRAK4; 6-hour incubation; Nano-Glo HiBiT Lytic Assay luminescence

Noted for CC(C)Oc1cc2nc(C3CCN(CC(=O)N4CCC(c5ccc(CN6CCC(=O)NC6=O)cc5)CC4)CC3)cn2cc1NC(=O)c1cccc(C(F)(F)F)n1 : its DC50 reads 100 to 500 nM

Reported DC50 for CC(C)Oc1cc2nc(C3CCN(CC(=O)N4CCN(c5ccc(C6CCC(=O)NC6=O)cc5)CC4)CC3)cn2cc1NC(=O)c1cccc(C(F)(F)F)n1 (stereo not drawn) was 10 to 100 nM

# compound CC(C)Oc1cc2nc([C@H]3CC[C@H](CN(C)C4CCN(c5ccc(NC6CCC(=O)NC6=O)cc5)CC4)CC3)cn2cc1NC(=O)c1cccc(C(F)(F)F)n1 (stereo partly drawn) ; its DC50 = 10 to 100 nM

Memo: CC(C)Oc1cc2nc(C3CCN(CC(=O)N4CCC(c5ccc(NC6CCC(=O)NC6=O)cc5)CC4)CC3)cn2cc1NC(=O)c1ccccc1 (stereo not drawn) , reported DC50: 100 to 500 nM

Documented DC50 of CC(C)Oc1cc2nc(C3CCN(C(=O)CN4CCN(c5ccc(C6CCC(=O)NC6=O)cc5)CC4)CC3)cn2cc1NC(=O)c1cccc(C(F)(F)F)n1 (stereo not drawn) : 100 to 500 nM
